# System: Ps. aeruginosa Pd 1
# experimental.details: minimal inhibitory concentration against Ps. aeruginosa Pd 1
# Format: cell-based
# experimental.conditions: Pseudomonas aeruginosa, PD1
Task for the reader: assign each of the following compounds its reported MIC.
Provide only the numeric value, understood in µg/mL.

query: Dear colleague, I am looking for the recorded MIC of the following compound: CO/N=C(\C(=O)NC1C(=O)N2C(C(=O)O)=C(COC(C)=O)CSC12)c1csc(N)n1 (stereo not shown)
result: 25

query: Name the recorded MIC for CO/N=C(\C(=O)NC1C(=O)N2C(C(=O)O)=C(COC(N)=O)CSC12)c1csc(N)n1 (stereo not shown) .
result: 50

query: Which MIC value belongs to CO/N=C(\C(=O)NC1C(=O)N2C(C(=O)O)=C(CSc3nnnn3C)CSC12)c1csc(N)n1 (stereo not shown) ?
result: 12.5

* * *

# System: Klebsiella pneumoniae DT
# experimental.details: minimal inhibitory concentration against K. pneumoniae DT
# Assay type: cell-based
# experimental.conditions: Klebsiella pneumoniae; K. pneumoniae DT; read-out: minimal inhibitory concentration
Assignment: determine reported MIC for the given molecules.
Output spec: scalar in µg/mL, unitless text.

query: Given the entry CO/N=C(\C(=O)NC1C(=O)N2C(C(=O)O)=C(CSc3nnc(C)s3)CSC12)c1csc(N)n1 (stereo not drawn) , what MIC was observed with Klebsiella pneumoniae DT?
result: 0.05

query: Entry CO/N=C(\C(=O)NC1C(=O)N2C(C(=O)O)=C(COC(C)=O)CSC12)c1csc(N)n1 (stereo not drawn) , system Klebsiella pneumoniae DT: what MIC was measured?
result: 0.024

query: What is its MIC for Klebsiella pneumoniae DT? Entry: CO/N=C(\C(=O)NC1C(=O)N2C(C(=O)O)=C(CSc3nnnn3C)CSC12)c1csc(N)n1 (stereo not drawn)
result: 0.024

query: Report MIC for CO/N=C(\C(=O)NC1C(=O)N2C(C(=O)O)=C(C)CSC12)c1csc(N)n1 (stereo not drawn) tested on Klebsiella pneumoniae DT.
result: 0.2

query: Entry CO/N=C(\C(=O)NC1C(=O)N2C(C(=O)O)=C(CSc3nnnn3CCN(C)C)CSC12)c1csc(N)n1 (stereo not drawn) [(e)] , system Klebsiella pneumoniae DT: what MIC was measured?
result: 0.1

* * *

recorded.metric: MIC (µg/mL)
Kindly answer with a numeric value in µg/mL, unit omitted.

query: Entry CO/N=C(\C(=O)NC1C(=O)N2C(C(=O)O)=C(CSc3nnnn3C)CSC12)c1csc(N)n1 (stereo not drawn) , system E. coli NIHJ: what MIC was measured?
result: 0.1

query: GET /values?readout=MIC&system=E. coli NIHJ&item= CO/N=C(\C(=O)NC1C(=O)N2C(C(=O)O)=C(COC(N)=O)CSC12)c1csc(N)n1 (stereo not drawn)
result: 0.1

query: Entry CO/N=C(\C(=O)NC1C(=O)N2C(C(=O)O)=C(COC(C)=O)CSC12)c1csc(N)n1 (stereo not drawn) , system E. coli NIHJ: what MIC was measured?
result: 0.2

query: E. coli NIHJ / MIC / CO/N=C(\C(=O)NC1C(=O)N2C(C(=O)O)=C(C)CSC12)c1csc(N)n1 (stereo not drawn) : value?
result: 0.78

query: Find the measured MIC: item CO/N=C(\C(=O)NC1C(=O)N2C(C(=O)O)=C(CSc3nnnn3CCN(C)C)CSC12)c1csc(N)n1 (stereo not drawn) [(e)] , target or system E. coli NIHJ.
result: 0.2

query: Provide the documented MIC with E. coli NIHJ as the system for CO/N=C(\C(=O)NC1C(=O)N2C(C(=O)O)=C(CSc3nnc(C)s3)CSC12)c1csc(N)n1 (stereo not drawn)
result: 0.2

* * *

Give MIC for every item shown.
# Test system: Klebsiella pneumoniae GN 3835
# experimental.details: minimal inhibitory concentration against K. pneumoniae GN 3835
# Assay type: cell-based
# experimental.conditions: Klebsiella pneumoniae, GN3835; K. pneumoniae GN 3835; read-out: minimal inhibitory concentration
Number plus unit, in that order.

query: Need MIC of CO/N=C(\C(=O)NC1C(=O)N2C(C(=O)O)=C(CSc3nnc(C)s3)CSC12)c1csc(N)n1 (stereo not drawn) , thanks.
result: 0.39 µg/mL

query: Given CO/N=C(\C(=O)NC1C(=O)N2C(C(=O)O)=C(COC(C)=O)CSC12)c1csc(N)n1 (stereo not drawn) , state its recorded MIC.
result: 0.05 µg/mL

query: Recorded MIC for CO/N=C(\C(=O)NC1C(=O)N2C(C(=O)O)=C(COC(N)=O)CSC12)c1csc(N)n1 (stereo not drawn) , please?
result: 0.05 µg/mL

query: What value of MIC has been recorded for this entry: CO/N=C(\C(=O)NC1C(=O)N2C(C(=O)O)=C(CSc3nnnn3C)CSC12)c1csc(N)n1 (stereo not drawn)
result: 0.2 µg/mL

query: Dear colleague, I am looking for the recorded MIC of the following compound: CO/N=C(\C(=O)NC1C(=O)N2C(C(=O)O)=C(CSc3nnnn3CCN(C)C)CSC12)c1csc(N)n1 (stereo not drawn) [(e)]
result: 0.2 µg/mL

query: So what's the measured MIC for this one? CO/N=C(\C(=O)NC1C(=O)N2C(C(=O)O)=C(C)CSC12)c1csc(N)n1 (stereo not drawn)
result: 0.2 µg/mL

* * *

# Test system: Proteus rettgeri GN 4733
# experimental.details: minimal inhibitory concentration against P. rettgeri GN 4733
# Format: cell-based
# experimental.conditions: Providencia rettgeri, GN4733; P. rettgeri GN 4733; read-out: minimal inhibitory concentration
For each record, write down the corresponding MIC.
State the result as a value with its unit after it.

query: // fetch Proteus rettgeri GN 4733 MIC for CO/N=C(\C(=O)NC1C(=O)N2C(C(=O)O)=C(CSc3nnc(C)s3)CSC12)c1csc(N)n1 (stereo not drawn)
result: 0.39 µg/mL

query: For the record CO/N=C(\C(=O)NC1C(=O)N2C(C(=O)O)=C(CSc3nnnn3C)CSC12)c1csc(N)n1 (stereo not drawn) , what value of MIC is listed for Proteus rettgeri GN 4733?
result: 0.2 µg/mL

query: Can you look up MIC on Proteus rettgeri GN 4733 for CO/N=C(\C(=O)NC1C(=O)N2C(C(=O)O)=C(CSc3nnnn3CCN(C)C)CSC12)c1csc(N)n1 (stereo not drawn) [(e)] ?
result: 0.78 µg/mL

query: Checklist item: MIC tested on Proteus rettgeri GN 4733, entry CO/N=C(\C(=O)NC1C(=O)N2C(C(=O)O)=C(C)CSC12)c1csc(N)n1 (stereo not drawn) , value?
result: 0.1 µg/mL

query: # returns recorded MIC (system: Proteus rettgeri GN 4733) for CO/N=C(\C(=O)NC1C(=O)N2C(C(=O)O)=C(COC(N)=O)CSC12)c1csc(N)n1 (stereo not drawn)
result: 0.05 µg/mL

query: Give the reported MIC for CO/N=C(\C(=O)NC1C(=O)N2C(C(=O)O)=C(COC(C)=O)CSC12)c1csc(N)n1 (stereo not drawn) (system: Proteus rettgeri GN 4733).
result: 0.2 µg/mL

* * *

# Tested on: Proteus mirabilis GN 4359
# experimental.details: minimal inhibitory concentration against P. mirabilis GN 4359
# Type: cell-based
# experimental.conditions: Proteus mirabilis, GN4359; P. mirabilis GN 4359; read-out: minimal inhibitory concentration
Exercise: for every item that follows, state its recorded MIC.
Use µg/mL as the unit, but write only the number.

query: Quick one: MIC for CO/N=C(\C(=O)NC1C(=O)N2C(C(=O)O)=C(C)CSC12)c1csc(N)n1 (stereo not drawn) ?
result: 0.1

query: Please give the measured MIC for this molecule: CO/N=C(\C(=O)NC1C(=O)N2C(C(=O)O)=C(CSc3nnnn3CCN(C)C)CSC12)c1csc(N)n1 (stereo not drawn) [(e)]
result: 0.39

query: Could you tell me which MIC is on file for CO/N=C(\C(=O)NC1C(=O)N2C(C(=O)O)=C(CSc3nnnn3C)CSC12)c1csc(N)n1 (stereo not drawn) ?
result: 0.1

query: What value of MIC has been recorded for this entry: CO/N=C(\C(=O)NC1C(=O)N2C(C(=O)O)=C(COC(C)=O)CSC12)c1csc(N)n1 (stereo not drawn)
result: 0.05

query: What MIC value was documented for this molecule, CO/N=C(\C(=O)NC1C(=O)N2C(C(=O)O)=C(CSc3nnc(C)s3)CSC12)c1csc(N)n1 (stereo not drawn) ?
result: 0.2

* * *

Please go through the items and note down their MIC.
# System: E. coli 0-111
# experimental.details: minimal inhibitory concentration against E. coli 0-111
# Format: cell-based, Escherichia coli
# experimental.conditions: Escherichia coli, 0111; E. coli 0-111; read-out: minimal inhibitory concentration
Field format: number, assumed µg/mL, no unit text.

query: What MIC appears in the records for this compound with E. coli 0-111? CO/N=C(\C(=O)NC1C(=O)N2C(C(=O)O)=C(CSc3nnc(C)s3)CSC12)c1csc(N)n1 (stereo not drawn)
result: 0.1

query: For E. coli 0-111, provide MIC of CO/N=C(\C(=O)NC1C(=O)N2C(C(=O)O)=C(COC(C)=O)CSC12)c1csc(N)n1 (stereo not drawn) please.
result: 0.05

query: Provide the documented MIC with E. coli 0-111 as the system for CO/N=C(\C(=O)NC1C(=O)N2C(C(=O)O)=C(C)CSC12)c1csc(N)n1 (stereo not drawn)
result: 0.39

query: Request - read-out MIC | tested on E. coli 0-111 | compound CO/N=C(\C(=O)NC1C(=O)N2C(C(=O)O)=C(COC(N)=O)CSC12)c1csc(N)n1 (stereo not drawn)
result: 0.024

query: # value lookup — system E. coli 0-111, readout MIC, item CO/N=C(\C(=O)NC1C(=O)N2C(C(=O)O)=C(CSc3nnnn3CCN(C)C)CSC12)c1csc(N)n1 (stereo not drawn) [(e)]
result: 0.024

query: Query for E. coli 0-111: what MIC does the record show for CO/N=C(\C(=O)NC1C(=O)N2C(C(=O)O)=C(CSc3nnnn3C)CSC12)c1csc(N)n1 (stereo not drawn) ?
result: 0.024
